biological target: ecNadD (Escherichia coli (strain K12), UniProt P0A752); assay: biochemical; assay type: biochemical
property-measured: […]. coli (%)

molecule: O=C(NNC(=O)C1CC=CCC1C(=O)O)c1cccc([NH2+][O-])c1 (stereo not shown) [compound 171]
property-measured: […]. coli
observed-result: 3
//
molecule: O=[N+]([O-])c1cccc(S(=O)(=O)Nn2cnnc2)c1 [compound 241]
property-measured: […]. coli
observed-result: 0
//
molecule: O=[N+]([O-])/C=C/Nc1cccc([N+](=O)[O-])c1 [compound 061]
property-measured: […]. coli
observed-result: 14
//
molecule: NS(=O)(=O)c1ccc(CCNC(=O)c2cccc(Cl)c2)cc1 [compound 048]
property-measured: […]. coli
observed-result: 16
//
molecule: O=C(O)Cn1cc(Cl)c([N+](=O)[O-])n1 [compound 117]
property-measured: […]. coli
observed-result: 8
//
molecule: CC(=O)Nc1ccc(/N=C/c2ccc([N+](=O)[O-])cc2)cc1 [compound 230]
property-measured: […]. coli
observed-result: 0
//
molecule: CC(=O)Nc1ccc(OCC(=O)Nc2ccccc2)cc1 [compound 125]
property-measured: […]. coli
observed-result: 7
//
molecule: O=C(O)CN1C(=O)CC(Cc2ccc(Cl)cc2)C1=O (stereo not shown) [compound 168]
property-measured: […]. coli
observed-result: 3
//
molecule: O=C(O)c1cc(NC(=O)c2ccc(Cl)cc2Cl)cc(C(=O)O)c1 [compound 209]
property-measured: […]. coli
observed-result: 0
//
molecule: CSc1cccc(NS(=O)(=O)c2ccc(Cl)cc2)c1 [compound 306]
property-measured: […]. coli
observed-result: 0
//
molecule: O=C(CNS(=O)(=O)c1ccc(Br)s1)NCCC1=CCCCC1 [compound 289]
property-measured: […]. coli
observed-result: 0
//
molecule: O=C(Nc1ccc([N+](=O)[O-])cn1)c1sc2ccccc2c1Cl [compound 186]
property-measured: […]. coli
observed-result: 2
//
molecule: O=c1[nH]c2ccc(/N=C/c3cc(Cl)ccc3O)cc2[nH]1 [compound 135]
property-measured: […]. coli
observed-result: 6
//
molecule: O=C(NCCc1nc2ccccc2[nH]1)c1cccs1 [compound 079]
property-measured: […]. coli
observed-result: 12
//
molecule: Cc1noc(C)c1S(=O)(=O)Nc1ccc(Br)cc1 [compound 265]
property-measured: […]. coli
observed-result: 0
//
molecule: O=C(NCc1ccc(C(=O)O)cc1)Nc1ccc(Br)cc1Cl [compound 245]
property-measured: […]. coli
observed-result: 0
//
molecule: Cc1ccc(NC(=S)NC(=O)c2ccc(F)cc2)nc1 [compound 105]
property-measured: […]. coli
observed-result: 9
//
molecule: NS(=O)(=O)c1ccc(NC(=O)CCc2ccccc2)cc1 [compound 081]
property-measured: […]. coli
observed-result: 11
//
molecule: O=[N+]([O-])c1cc2c(cc1/C=N/Nc1nnn[nH]1)OCO2 [compound 063]
property-measured: […]. coli
observed-result: 14
//
molecule: CC(C)COC1CS(=O)(=O)CC1OCC(C)C (stereo not shown) [compound 223]
property-measured: […]. coli
observed-result: 0
//
molecule: Nc1c(C(=O)Nc2ccc(F)c(F)c2)sc2nc(-c3ccncc3)ccc12 [compound 287]
property-measured: […]. coli
observed-result: 0
//
molecule: NS(=O)(=O)c1ccc(NCc2cccc(Cl)c2Cl)cc1 [compound 157]
property-measured: […]. coli
observed-result: 5
//
molecule: CCSc1ccccc1C(=O)Nc1ccc(S(N)(=O)=O)cc1 [compound 121]
property-measured: […]. coli
observed-result: 8
//
molecule: O=C(NCc1ccccc1)Nc1ccc2nsnc2c1 [compound 124]
property-measured: […]. coli
observed-result: 7
//
molecule: O=C(CSc1nnc[nH]1)Nc1ccc(I)cc1 [compound 129]
property-measured: […]. coli
observed-result: 7
//
molecule: O=C(O)c1cc(Cl)c(Cl)cc1C(=O)Nc1ccc(O)cc1 [compound 107]
property-measured: […]. coli
observed-result: 9
//
molecule: O=C(Nc1ccc(NC(=O)c2cccs2)cc1)c1ccccc1 [compound 020]
property-measured: […]. coli
observed-result: 26
//
molecule: CS(=O)(=O)N(CC(=O)Nc1ccccc1Br)c1ccc(Cl)cc1 [compound 163]
property-measured: […]. coli
observed-result: 4
//
molecule: Oc1c(Br)cc(Cl)cc1/C=N/c1ccccn1 [compound 044]
property-measured: […]. coli
observed-result: 17
//
molecule: COC(=O)c1cc(O)c(C(=O)Nc2ccc(Cl)c(Cl)c2)s1 [compound 052]
property-measured: […]. coli
observed-result: 16
//
molecule: NC(=O)c1ccc(NC(=O)COc2ccc3ccccc3c2)cc1 [compound 097]
property-measured: […]. coli
observed-result: 10
//
molecule: O=S(=O)(NCCCc1ccccc1)c1cccc2nsnc12 [compound 142]
property-measured: […]. coli
observed-result: 6
//
molecule: O=C1NC(=O)/C(=C\c2ccc(O)c(I)c2)N1 [compound 194]
property-measured: […]. coli
observed-result: 1
//
molecule: Nc1nc(SCC(=O)NCC2CCCO2)n[nH]1 (stereo not shown) [compound 173]
property-measured: […]. coli
observed-result: 3
//
molecule: O=C(O)/C=C/c1ccc(S(=O)(=O)NCc2ccc3c(c2)OCO3)cc1 [compound 070]
property-measured: […]. coli
observed-result: 13
//
molecule: O=C(NCc1cccs1)C1CC(c2cccc(Br)c2)=NO1 (stereo not shown) [compound 222]
property-measured: […]. coli
observed-result: 0
//
molecule: Nc1n[nH]c(N)c1/N=N/c1ccccc1 [compound 271]
property-measured: […]. coli
observed-result: 0
//
molecule: N=C(NNS(=O)(=O)c1ccccc1)c1ccccn1 [compound 161]
property-measured: […]. coli
observed-result: 4
//
molecule: O=C(CSc1nc2ccccc2[nH]1)Nc1cccc(C(=O)O)c1 [compound 248]
property-measured: […]. coli
observed-result: 0
//
molecule: O=C(CSS(=O)(=O)O)NCCc1c[nH]c2ccccc12 [compound 072]
property-measured: […]. coli
observed-result: 12
